Quick reference: melting point of the listed items.

Examples from the recorded data:
Compound	Experimental Endpoint	Result
COC(=O)c1ccc(NC(=O)OCc2ccccc2)c(Cl)c1	melting point	108 °C
COc1c(C2CCN(CCCCNC(=O)c3oc(-c4ccc(C#N)cc4)nc3C)CC2)ccc2c1CCCC2	melting point	157 °C
CN(C)C(=O)c1cc(O)ccc1O	melting point	144 to 146 °C
COC(=O)CCC(C)C1CCC2C3CCC4CC(N)CCC4(C)C3CC(=O)C12C (stereo unspecified)	melting point	129 to 130 °C
CC(=O)c1ccc(N(C)C)c(S(N)(=O)=O)c1	melting point	184 to 185 °C

Q. Give reported melting point value for "Cc1cc(Cl)ncc1C(=O)O"
A. 170 to 172 °C

Q. Give reported melting point value for "Cc1csc2c(Sc3nnc(N)s3)ncnc12"
A. 221 to 223 °C

Q. Give reported melting point value for "CC1(C)CC(C)(C)c2cc(CC(=O)O)ccc21"
A. 143 °C

Q. Give reported melting point value for "CCCNc1ccc(NC(=O)c2ccc(NC(=O)c3ccc(NCCC)nc3)nc2)nc1"
A. 249 to 250 °C

Q. Give reported melting point value for "CCCCCCCCCCCCCCOc1ccccc1CBr"
A. 35 to 36 °C

Q. Give reported melting point value for "Cc1ccc(Oc2nc3ccccc3o2)c(=S)n1C"
A. 245 to 247 °C

----------
Experimental Endpoint: melting point

Molecule	melting point
O=C(O)c1ccc(Cl)c(NC(=O)C(CS)Cc2ccccc2)c1 (stereo unspecified)	189 to 191 °C
Nc1ccc2c(c1N)Cc1ccccc1-2	240 to 243 °C
COc1ccc(S(=O)(=O)c2c(SC)nn3c(N)cc(C)nc23)cc1	> 230 °C
C=Cc1cn(-c2c(Cl)cc(C(F)(F)F)cc2Cl)nn1	109 to 111 °C
CCCCc1ccc(C(=O)O)c2ccccc12	136 to 137 °C

Switching to the query record.
Q. Give reported melting point value for "CCOC(=O)c1ccccc1-n1nnnc1C"
A. 98 to 100 °C

----------
Experimental Endpoint: melting point

Examples from the recorded data:
Chem Smiles	melting point
CCSc1c(O[C@H]2CC[C@H](N)CC2)ccc2[nH]ncc12	157 to 158 °C
CC[C@H]1c2ccc(C#N)n2-c2cc(F)c(F)cc2N1S(=O)(=O)c1ccc(O)cc1	191 to 192 °C
O=C(O)COc1ccc(S(=O)(=O)c2cccs2)c(Cl)c1Cl	179 °C
C=C(c1ccsc1C(=O)O)c1cc(C(C)(C)C)cc2c1CCC2(C)C	146 to 148 °C

Q. Give reported melting point value for "CCC(C)(C)n1nnnc1S"
A. 104 to 106 °C

Q. Give reported melting point value for "C[C@]1(CN2CCN(c3ccc(C(=O)O)cc3)CC2)Cn2cc([N+](=O)[O-])nc2O1"
A. 248 to 252 °C

Q. Give reported melting point value for "O=Cc1cccc(NC(=O)c2ccccc2)c1"
A. 122 to 123 °C

Q. Give reported melting point value for "CCOP(=O)(CC(=O)N(CC)c1cn(-c2cccnc2)nc1Cl)OCC"
A. 46 to 48 °C

Q. Give reported melting point value for "CCCn1cc(C(=O)OCC)c(=O)c2cc(CN3CCOCC3)oc21"
A. 195 to 196 °C

Q. Give reported melting point value for "COc1ccc(N2C(=O)[C@H]([C@@H](C)O)[C@H]2S(=O)(=O)c2ccccc2)cc1"
A. 191 to 195 °C
